Value source: PubChem BioAssay AID1996

details: buffer; pH 7.4; 200.0 µM
valueKind: solubility kinetic

Here are 4 compounds together with their reported answers.
>>> reportedvalue("Cc1nc(-c2cc(C#N)c(=O)[nH]c2C)cs1")
"> 34.7 µg/mL"
>>> reportedvalue("Nc1cc(S(=O)(=O)N2CCOCC2)ccc1N1CCOCC1")
"> 49.1 µg/mL"
>>> reportedvalue("CCC(=O)c1ccc(OCC(=O)N2CCCC2)c(OC)c1")
"> 43.7 µg/mL"
>>> reportedvalue("CCOC(=O)Cn1c(=O)oc2ccc(C)cc21")
"> 35.3 µg/mL"

# evaluate next
Query: Provide solubility kinetic value for the following compound: `Cc1nnc(SCC(=O)NCC(=O)Nc2ccc(F)c(F)c2F)n1N`
Result: > 56.2 µg/mL
